- Assayed target: Human SSAO (Homo sapiens)
- Construct: Human or mice adipose tissue homogenates, used as a source of SSAO activity; from tissue; host or cells: human adipose tissue homogenate
- Protocol: SSAO activity determination (H2O2 detection with horseradish peroxidase/Amplex Red, benzylamine as substrate)
- Format: biochemical
- Cond: human adipose tissue homogenates as SSAO source, 20 min preincubation at 37° C., semicarbazide control subtracted
Quantity: IC50 (µM)

// solved cases for IC50 follow
>>> print(df.to_string())
                                   molecule             assayed_target  result_unit  experimental_value
0  Cc1ccc(C2(C(=O)NCc3ccc(C(=O)NO)cc3)CCCC2)cc1  Human SSAO (Homo sapiens)           µM               0.334
1  NC(=O)C1CCCN1C(=O)c1cc2ccccc2cc1O (centres unmarked)  Human SSAO (Homo sapiens)           µM               0.147
2  CC(O)C(NS(=O)(=O)c1ccc2cccnc2c1)C(=O)NO (centres unmarked)  Human SSAO (Homo sapiens)           µM               0.789

[a] CCC(C)(C)c1ccc(S(=O)(=O)NCC(=O)NO)cc1
[b] NC(=O)C1CCCN1C(=O)c1ccc2ncccc2c1 (centres unmarked)
Input: Look at a and b . Which one has the lower recorded IC50 number? In your reply, give the label of the chosen option.
Output: b
(b: 0.16 µM, a: 1.57 µM)

[A] CC(NC(=O)CCC(=O)NO)c1ccc2ccccc2c1 (centres unmarked)
[B] Nc1ccc(C(=O)NCCOc2ccccc2)cc1O
[C] CCCc1ccc(S(=O)(=O)NC(CO)C(=O)NO)cc1 (centres unmarked)
[D] Cc1ccc(S(=O)(=O)NCc2ccc(C(=O)NO)cc2)cc1
Input: Rank the 4 molecules: largest IC50 first, smallest last. To answer, arrange all of the labels according to the requested order.
Output: D, A, B, C

[A] Cc1ccc(/C=C/C(=O)NC(CCC(=O)O)C(=O)O)cc1 (centres unmarked)
[B] CC(O)C(NS(=O)(=O)c1ccc(-c2ccccc2)cc1)C(=O)NO (centres unmarked)
Input: Determine, for A and B , which has the greater value of IC50. Use the label to indicate which entry you chose.
Output: B

[a] Nc1ccc(C(=O)NCCCc2ccccc2)cc1O
[b] CC(O)C(NS(=O)(=O)c1ccc2ccccc2c1)C(=O)NO (centres unmarked)
[c] O=C(NO)C1Cc2ccccc2C1
[d] O=C(NO)C(CO)NS(=O)(=O)c1ccc(-c2ccccc2)cc1 (centres unmarked)
Input: Hey, quick one: sort these by IC50, largest value first please. I would appreciate it if you listed the labels in the requested order.
Output: c, d, a, b
(c: 1.1 µM, d: 0.25 µM, a: 0.146 µM, b: 0.054 µM)

[a] CCCc1ccc(S(=O)(=O)NC(C(=O)NO)C(C)O)cc1 (centres unmarked)
[b] Nc1ccc(O)c(C(=O)NCCCCc2ccccc2)c1
Input: // pick larger IC50 from pair: a vs b # respond with the chosen item's label
Output: b
(b: 0.762 µM, a: 0.136 µM)

[a] Cc1ccc(S(=O)(=O)NC(CN)C(=O)NO)cc1 (centres unmarked)
[b] CN(C)c1cccc2ccc(S(=O)(=O)NC(CO)C(=O)NO)cc12 (centres unmarked)
[c] CCC(C)(C)c1ccc(S(=O)(=O)NC(CO)C(=O)NO)cc1 (centres unmarked)
[d] Nc1ccc(O)c(C(=O)NCCc2ccccc2)c1
[e] O=C(O)CCC(NC(=O)CCCc1ccccc1)C(=O)O (centres unmarked)
Input: Put the molecules in ascending order of IC50. Order the labels as requested and give them as your answer.
Output: c, b, a, e, d

[a] O=C(CCC(=O)Nc1ccccc1O)NO
[b] NC(=O)C1CCCN1C(=O)c1nccc2ccccc12 (centres unmarked)
Input: For this pair, a and b , which shows a numerically higher IC50? Select an item and report its label.
Output: a
(a: 0.14 µM, b: 0.078 µM)

[P] CC(C)(C)c1ccc(C(=O)N2CCCC2C(N)=O)cc1 (centres unmarked)
[Q] Nc1ccc(C(=O)NCc2ccc3ccccc3c2)cc1O
Input: Looking only at measured IC50, which entry is lower, P or Q ? Write the label of whichever entry you select.
Output: P

====

- Assayed target: Human SSAO (Homo sapiens, UniProt Q16853)
- Construct: Human or mice adipose tissue homogenates, used as a source of SSAO activity; from tissue; host or cells: human adipose tissue homogenate
- Sequence (Q16853 whole entry): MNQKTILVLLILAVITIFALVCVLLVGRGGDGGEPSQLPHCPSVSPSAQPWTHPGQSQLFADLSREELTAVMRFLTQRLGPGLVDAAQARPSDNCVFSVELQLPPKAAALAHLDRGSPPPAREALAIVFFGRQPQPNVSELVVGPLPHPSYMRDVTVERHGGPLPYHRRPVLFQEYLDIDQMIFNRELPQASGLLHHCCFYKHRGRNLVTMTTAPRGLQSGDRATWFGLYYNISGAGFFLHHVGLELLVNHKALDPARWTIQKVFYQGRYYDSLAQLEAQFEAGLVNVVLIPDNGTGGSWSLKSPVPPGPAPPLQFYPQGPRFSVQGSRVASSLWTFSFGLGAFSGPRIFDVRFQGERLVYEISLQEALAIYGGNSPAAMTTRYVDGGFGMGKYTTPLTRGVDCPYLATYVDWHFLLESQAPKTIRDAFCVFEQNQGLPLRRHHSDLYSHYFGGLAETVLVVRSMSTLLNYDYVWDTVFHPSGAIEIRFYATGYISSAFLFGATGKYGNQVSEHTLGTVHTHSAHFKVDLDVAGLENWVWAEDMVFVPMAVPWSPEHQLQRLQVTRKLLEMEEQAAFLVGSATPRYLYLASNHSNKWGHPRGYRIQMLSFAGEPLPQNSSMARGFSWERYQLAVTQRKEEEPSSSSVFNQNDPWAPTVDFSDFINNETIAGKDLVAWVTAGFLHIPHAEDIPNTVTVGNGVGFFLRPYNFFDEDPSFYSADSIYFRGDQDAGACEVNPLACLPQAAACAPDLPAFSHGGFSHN
- Protocol: SSAO activity determination (H2O2 detection with horseradish peroxidase/Amplex Red, benzylamine as substrate)
- Format: biochemical
- Cond: human adipose tissue homogenates as SSAO source, 20 min preincubation at 37° C., semicarbazide control subtracted
Quantity: IC50 (µM)

>>> df
                                   molecule  experimental_value
0            Nc1ccc(O)c(C(=O)NCc2ccccc2O)c1               0.074
1  NC(=O)C1CCCN1C(=O)c1ccc(-c2ccccc2)cc1 (centres unmarked)               0.121

[I] Nc1ccc(C(=O)NCCc2ccccc2)cc1O
[II] Nc1ccc(O)c(C(=O)NCc2ccc3ccccc3c2)c1
[III] CCC(C)(C)c1ccc(S(=O)(=O)NC(C(=O)NO)C(C)O)cc1 (centres unmarked)
[IV] O=C(O)CCC(NC(=O)Cc1ccc(-c2ccccc2)cc1)C(=O)O (centres unmarked)
[V] Cc1ccc(S(=O)(=O)NC(C(=O)NO)C(C)O)cc1 (centres unmarked)
Input: Hey, quick one: sort these by IC50, largest value first please. Answer with the labels in sequence, matching the requested order.
Output: II, I, IV, V, III

[a] CC(NC(=O)c1ccc(N)c(O)c1)c1ccc2ccccc2c1 (centres unmarked)
[b] Cc1ccc(C2(C(=O)NC(CCC(=O)NO)C(=O)O)CCCC2)cc1 (centres unmarked)
Input: Which numeric IC50 is bigger, that of a or that of b ? To answer, give the label that identifies your chosen option.
Output: a

====

- Assayed target: Human SSAO (Homo sapiens)
- Construct: Human or mice adipose tissue homogenates, used as a source of SSAO activity; from tissue; host or cells: human adipose tissue homogenate
- Protocol: SSAO activity determination (H2O2 detection with horseradish peroxidase/Amplex Red, benzylamine as substrate)
- Assay type: biochemical
- Cond: human adipose tissue homogenates as SSAO source, 20 min preincubation at 37° C., semicarbazide control subtracted
Quantity: IC50 (µM)

Look over these answered cases.
>>> df
                                   compound  experimental_value
0  COc1cc(CNC(=O)c2cc(N)ccc2O)cc(OC)c1 [compound 50]               0.577
1  CC(CCc1ccccc1)NC(=O)CCC(=O)NO (stereo not drawn) [compound 37]                0.18
2  Nc1ccc(O)c(C(=O)NCCCc2ccccc2)c1 [compound 54]               0.575
3  Nc1ccc(O)c(C(=O)NCCOc2ccccc2)c1 [compound 52]               0.189
4  O=C(CNS(=O)(=O)c1ccc2ccccc2c1)NO [compound 15]               0.217

[I] O=C(CNC(=O)c1ccc(Br)cc1)NO [compound 3]
[II] NCC(NS(=O)(=O)c1ccc(-c2ccccc2)cc1)C(=O)NO (stereo not drawn) [compound 7]
Input: Please compare: I and II . Report which one has the smaller IC50 value. Reply with the label of the item you choose.
Output: I
(I: 0.1 µM, II: 1.9 µM)

[A] O=C(CCc1ccccc1O)NCc1ccc(C(=O)NO)cc1 [compound 25]
[B] O=C(CNS(=O)(=O)c1ccc2ccccc2c1)NO [compound 17]
Input: Would you let me know which has the greater IC50 value, A or B ? I would appreciate it if you answered with the label of your choice.
Output: A

[1] Nc1ccc(C(=O)NCc2ccc(F)cc2)cc1O [compound 40]
[2] Nc1ccc(C(=O)NCCCCc2ccccc2)cc1O [compound 46]
[3] O=C(NO)C(CO)NS(=O)(=O)c1ccc2ccccc2c1 (stereo not drawn) [compound 13]
Input: Highest IC50 first, then in falling order down to the smallest. I'd appreciate it if you listed the labels in the requested order.
Output: 2, 1, 3

[P] CC(O)C(NS(=O)(=O)c1ccc2cccc(N(C)C)c2c1)C(=O)NO (stereo not drawn) [compound 22]
[Q] O=C(O)CCC(NC(=O)c1cc2ccccc2[nH]1)C(=O)O (stereo not drawn) [compound 30]
Input: Which value of IC50 is greater, the one for P or the one for Q ? Reply with the label of the item you choose.
Output: P
